target: T1, AIM2HIN (Homo sapiens, UniProt O14862 144-343)
T1 sequence: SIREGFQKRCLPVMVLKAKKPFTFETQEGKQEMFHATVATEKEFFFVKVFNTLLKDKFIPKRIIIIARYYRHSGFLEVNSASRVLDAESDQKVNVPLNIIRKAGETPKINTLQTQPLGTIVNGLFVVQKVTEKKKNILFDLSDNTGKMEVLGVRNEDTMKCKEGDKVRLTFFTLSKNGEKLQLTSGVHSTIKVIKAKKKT
method: competition fluorescence anisotropy; unlabelled competitor against 6 nM 24-bp FAM-dsDNA, 625 nM protein; 160 mM KCl (60 mM KCl for IFI16HinAB); buffer, pH and temperature not given in the available text
settings: protein: recombinant
property: log10 IC50 (log10 of the value in nM)

[
  {
    "binder": "60-base ssRNA_U (ssRNA) RNA: UUUCUUUCUUUCUUUCUUUCUUUCUUUCUUUCUUUCUUUCUUUCUUUCUUUCUUUCUUUC",
    "log10 IC50": 2.34
  },
  {
    "binder": "60-base ssDNA_A (ssDNA) DNA: AAAGAAAGAAAGAAAGAAAGAAAGAAAGAAAGAAAGAAAGAAAGAAAGAAAGAAAGAAAG",
    "log10 IC50": 2.13
  },
  {
    "binder": "60-bp DNA:RNA hybrid (DNA:RNA) DNA: TAAGACACGATGCGATAAAATCTGTTTGTAAAATTTATTAAGGGTACAAATTGCCCTAGC RNA: GCUAGGGCAAUUUGUACCCUUAAUAAAUUUUACAAACAGAUUUUAUCGCAUCGUGUCUUA",
    "log10 IC50": 2.00
  },
  {
    "binder": "60-base ssRNA_A (ssRNA) RNA: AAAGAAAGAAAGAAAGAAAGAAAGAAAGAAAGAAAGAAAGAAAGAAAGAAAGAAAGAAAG",
    "log10 IC50": 2.12
  },
  {
    "binder": "60-bp dsRNA (dsRNA) RNA 1: UAAGACACGAUGCGAUAAAAUCUGUUUGUAAAAUUUAUUAAGGGUACAAAUUGCCCUAGC RNA 2: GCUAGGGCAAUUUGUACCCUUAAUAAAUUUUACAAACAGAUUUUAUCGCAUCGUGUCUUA",
    "log10 IC50": 1.97
  },
  {
    "binder": "60-bp dsDNA (dsDNA) DNA 1: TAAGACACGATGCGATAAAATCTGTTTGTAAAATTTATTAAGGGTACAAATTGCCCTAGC DNA 2: GCTAGGGCAATTTGTACCCTTAATAAATTTTACAAACAGATTTTATCGCATCGTGTCTTA",
    "log10 IC50": 1.29
  },
  {
    "binder": "60-base ssDNA_T (ssDNA) DNA: TTTCTTTCTTTCTTTCTTTCTTTCTTTCTTTCTTTCTTTCTTTCTTTCTTTCTTTCTTTC",
    "log10 IC50": 2.05
  }
]
